Reference for the values: ChEMBL document CHEMBL1201862

# Target: Carboxy-terminal domain RNA polymerase II polypeptide A small phosphatase 1 (Homo sapiens)
# Sequence (Q9GZU7 whole entry): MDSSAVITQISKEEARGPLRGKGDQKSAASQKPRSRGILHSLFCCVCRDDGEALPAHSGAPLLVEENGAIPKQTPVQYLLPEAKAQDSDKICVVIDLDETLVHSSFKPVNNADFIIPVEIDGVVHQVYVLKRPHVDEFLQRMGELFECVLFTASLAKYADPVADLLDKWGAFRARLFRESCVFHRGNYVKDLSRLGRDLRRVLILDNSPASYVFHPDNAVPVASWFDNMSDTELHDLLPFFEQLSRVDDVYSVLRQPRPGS
# Assay comment: CTDSP1 inhibitors, concentration-response, biochemical, absorbance readout, ultra-high-throughput screen actives (AID 540297)
# Format: functional
Active and inactive are the calls of the source.
IC50 by entry:

{"Sample smiles": "CCc1c(C)[nH]n(-c2ccc(Oc3ccccc3)c(S(=O)(=O)O)c2)c1=O", "IC50": "4.83 µM (active)"}
{"Sample smiles": "Cc1ccc(C)c(NC(=O)CSc2sc3c(O)cc(=O)[nH]c3c2C#N)c1", "IC50": "6.09 µM (active)"}
{"Sample smiles": "CCc1ccccc1NC(=O)CCS(=O)(=O)c1ccc(OC)cc1", "IC50": "21.1 µM (active)"}
{"Sample smiles": "O=C(COc1cccc([N+](=O)[O-])c1)N/N=C/c1ccco1", "IC50": "13.9 µM (active)"}
{"Sample smiles": "CCOc1cccc(N2C(=O)/C(=C/c3ccco3)C(=O)NC2=S)c1", "IC50": "1.6 µM (active)"}
{"Sample smiles": "COC(=O)Cn1c(=O)c2c(n(Cc3ccccc3)c1=O)=N/C(=C/c1ccc(Br)cc1)C=2O", "IC50": "5.15 µM (active)"}

---

# Target: Histone-lysine N-methyltransferase NSD2 (Homo sapiens)
# Sequence (O96028 whole entry): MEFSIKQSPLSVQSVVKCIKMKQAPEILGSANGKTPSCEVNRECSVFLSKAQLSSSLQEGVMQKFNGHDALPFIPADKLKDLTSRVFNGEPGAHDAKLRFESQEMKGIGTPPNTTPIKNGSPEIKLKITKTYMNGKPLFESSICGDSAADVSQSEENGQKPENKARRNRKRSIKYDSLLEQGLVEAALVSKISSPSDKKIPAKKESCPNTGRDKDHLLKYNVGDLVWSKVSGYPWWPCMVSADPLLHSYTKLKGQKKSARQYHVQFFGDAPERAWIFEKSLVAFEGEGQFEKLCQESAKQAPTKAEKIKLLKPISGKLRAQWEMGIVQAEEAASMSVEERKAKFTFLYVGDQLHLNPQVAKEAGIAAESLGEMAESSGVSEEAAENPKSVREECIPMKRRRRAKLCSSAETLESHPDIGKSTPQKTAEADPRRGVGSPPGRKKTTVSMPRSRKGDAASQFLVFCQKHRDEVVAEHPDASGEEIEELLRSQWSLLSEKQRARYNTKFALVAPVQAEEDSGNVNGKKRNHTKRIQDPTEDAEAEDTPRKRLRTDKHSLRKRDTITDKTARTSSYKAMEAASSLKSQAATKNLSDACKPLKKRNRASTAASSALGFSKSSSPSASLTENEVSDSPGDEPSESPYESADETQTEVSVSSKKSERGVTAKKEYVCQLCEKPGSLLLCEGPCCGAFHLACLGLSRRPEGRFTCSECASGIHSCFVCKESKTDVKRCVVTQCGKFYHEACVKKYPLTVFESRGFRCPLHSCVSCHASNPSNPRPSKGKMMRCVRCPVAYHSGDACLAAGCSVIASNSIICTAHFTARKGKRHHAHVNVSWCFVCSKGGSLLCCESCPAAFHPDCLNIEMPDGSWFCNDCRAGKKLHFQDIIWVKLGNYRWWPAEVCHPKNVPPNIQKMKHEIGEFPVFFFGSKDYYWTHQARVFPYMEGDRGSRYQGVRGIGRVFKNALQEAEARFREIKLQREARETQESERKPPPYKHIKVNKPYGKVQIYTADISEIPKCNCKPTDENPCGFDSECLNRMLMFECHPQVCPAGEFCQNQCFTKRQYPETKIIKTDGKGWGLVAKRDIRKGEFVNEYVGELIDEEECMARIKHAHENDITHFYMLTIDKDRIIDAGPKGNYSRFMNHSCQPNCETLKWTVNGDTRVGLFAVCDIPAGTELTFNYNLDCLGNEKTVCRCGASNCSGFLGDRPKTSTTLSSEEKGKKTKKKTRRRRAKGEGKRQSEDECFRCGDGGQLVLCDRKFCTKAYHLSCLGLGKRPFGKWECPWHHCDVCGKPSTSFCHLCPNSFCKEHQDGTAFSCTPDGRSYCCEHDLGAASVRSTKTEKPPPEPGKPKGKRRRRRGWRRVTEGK
# Assay type: biochemical
Calls of active or inactive are those of the source.

{"Compound": "CCCCNC(=O)c1c(N)n(Cc2ccc3c(c2)OCO3)c2nc3ccccc3nc12", "AC50": "19.4 µM (active)"}
{"Compound": "O=C(O)CC(C(=O)O)N1C(=O)/C(=C/C=C/c2ccco2)SC1=S (centres undefined)", "AC50": "4.16 µM (active)"}
{"Compound": "Cc1ccc(S(=O)(=O)/N=C2\\C=C(NS(=O)(=O)c3ccc(C)cc3)C(=O)c3ccccc32)cc1", "AC50": "2.98 µM (active)"}
{"Compound": "CCOc1cccc(N2C(=O)/C(=C/c3ccco3)C(=O)NC2=S)c1", "AC50": "1.04 µM (active)"}
